# targetSystem: T1, human plasma kallikrein (human, UniProt P03952 20-390; P03952 391-638)
# T1 construct: two disulfide linked chains; also called pKal; human pKal
# T1 sequence (P03952 20-390, chain 1 of 2): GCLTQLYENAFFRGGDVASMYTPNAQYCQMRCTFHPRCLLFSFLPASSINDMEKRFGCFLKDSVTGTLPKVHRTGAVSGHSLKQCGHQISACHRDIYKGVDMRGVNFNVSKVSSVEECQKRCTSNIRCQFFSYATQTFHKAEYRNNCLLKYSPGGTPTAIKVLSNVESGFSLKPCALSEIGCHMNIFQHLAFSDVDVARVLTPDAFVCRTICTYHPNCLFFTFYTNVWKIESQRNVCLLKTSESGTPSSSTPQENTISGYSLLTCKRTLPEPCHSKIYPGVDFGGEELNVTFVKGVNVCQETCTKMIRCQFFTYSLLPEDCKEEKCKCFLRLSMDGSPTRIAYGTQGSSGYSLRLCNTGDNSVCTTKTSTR
# T1 sequence (P03952 391-638, chain 2 of 2): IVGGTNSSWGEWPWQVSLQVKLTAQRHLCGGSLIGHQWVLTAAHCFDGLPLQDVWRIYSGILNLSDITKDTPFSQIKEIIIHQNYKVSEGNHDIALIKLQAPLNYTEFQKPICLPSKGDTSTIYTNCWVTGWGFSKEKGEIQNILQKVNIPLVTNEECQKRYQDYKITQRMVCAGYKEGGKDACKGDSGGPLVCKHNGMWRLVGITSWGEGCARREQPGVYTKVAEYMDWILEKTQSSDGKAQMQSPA
# protocolDescription: Ki,app, enzyme inhibition of pKal; antibody format not stated
measurementName: pKi
Friendly reminder that pKi comes from taking -log10 of the concentration in mol/L.

Completed entries (count: 2):
binder	dataValue
X60-D01 (antibody, V domains shown, Found by ROLIC light chain shuffling) VH: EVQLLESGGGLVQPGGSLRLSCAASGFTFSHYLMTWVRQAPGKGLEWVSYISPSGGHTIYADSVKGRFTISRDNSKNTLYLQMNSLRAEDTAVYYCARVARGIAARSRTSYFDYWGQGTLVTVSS VL: DIQMTQSPGTLSLSPGERATLSCRASQIVSSRYLAWYQQRPGQAPRLLIYGAASRATGIPDRFSGSGSGTDFTLTISSLQAEDFATYYCQQTYSSPFTFGQGTKMEIK	8.70
X64-F04 (antibody, V domains shown, Found by ROLIC light chain shuffling) VH: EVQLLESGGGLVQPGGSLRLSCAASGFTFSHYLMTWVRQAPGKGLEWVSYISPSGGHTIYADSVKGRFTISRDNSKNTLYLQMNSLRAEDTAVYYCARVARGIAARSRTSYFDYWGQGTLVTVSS VL: DIQMTQSPATLSLSPGERATLSCRASQIVSSNYLAWYQQKPGQAPRLLIYGASNRATGIPDRFSGSGSGTEFTLTISSLQSEDFAIYYCQQSFNIPYTFGQGTRVDIK	8.72

Now for another entry.
Q: What value of pKi has been reported for the following binder? X63-G10 (antibody, V domains shown, Found by ROLIC light chain shuffling) VH: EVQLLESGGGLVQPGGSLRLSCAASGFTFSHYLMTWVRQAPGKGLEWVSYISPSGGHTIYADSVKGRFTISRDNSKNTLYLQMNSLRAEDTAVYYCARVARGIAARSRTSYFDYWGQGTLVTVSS VL: DIQMTQSPDSLSASVGDRVTITCRASQSISNYLNWYQQKPGKAPKLLIYAASSLQSGVPSRFSGSGSGTDFTLTISGLQPEDFASYYCQQSYTSPYTFVQGTKLEIKR
A: 8.05
